target_entity: Bifunctional dihydrofolate reductase-thymidylate synthase (Toxoplasma gondii, UniProt Q07422)
Sequence (Q07422 whole entry): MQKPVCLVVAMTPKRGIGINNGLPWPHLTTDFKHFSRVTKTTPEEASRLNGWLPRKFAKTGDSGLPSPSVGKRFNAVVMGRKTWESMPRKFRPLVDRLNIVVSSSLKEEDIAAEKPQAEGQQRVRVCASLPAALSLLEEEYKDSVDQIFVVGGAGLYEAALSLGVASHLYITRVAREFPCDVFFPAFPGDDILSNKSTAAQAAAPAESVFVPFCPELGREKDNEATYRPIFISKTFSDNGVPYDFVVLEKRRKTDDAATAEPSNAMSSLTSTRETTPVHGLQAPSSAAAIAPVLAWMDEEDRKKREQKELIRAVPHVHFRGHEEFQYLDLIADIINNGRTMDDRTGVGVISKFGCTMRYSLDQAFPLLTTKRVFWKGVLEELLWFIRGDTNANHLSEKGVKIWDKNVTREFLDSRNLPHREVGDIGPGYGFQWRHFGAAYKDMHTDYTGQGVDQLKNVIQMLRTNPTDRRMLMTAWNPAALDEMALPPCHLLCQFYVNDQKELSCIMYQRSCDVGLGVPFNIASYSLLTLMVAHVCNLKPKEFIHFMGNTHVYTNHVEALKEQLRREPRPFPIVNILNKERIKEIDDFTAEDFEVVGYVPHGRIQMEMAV
test_protocol: Inhibition of Toxoplasma gondii DHFR
pIC50: −log10 of the molar value.
quantity: pIC50

Supply recorded pIC50 for Nc1nc2cc3ccccc3c-2c(Nc2cccc(Br)c2)[nH]1 here.
< 4.85

Supply recorded pIC50 for Nc1nc2cc3ccccc3c-2c(Nc2ccc(Cl)cc2F)[nH]1 here.
< 4.80

Supply recorded pIC50 for CC(C)c1ccc(Nc2[nH]c(N)nc3cc4ccccc4c2-3)cc1 here.
< 4.80

Supply recorded pIC50 for Nc1nc2cc3ccccc3c-2c(Nc2ccc(Cl)cc2)[nH]1 here.
< 4.80

Supply recorded pIC50 for Nc1nc2cc3ccccc3c-2c(Nc2ccc(F)c(Cl)c2)[nH]1 here.
< 4.80

----------
Form: system (Dihydroorotate dehydrogenase (quinone), mitochondrial (Homo sapiens, UniProt Q02127)), quantity (pIC50), values below.
pIC50: −log10 of the molar value.

Supply recorded pIC50 for Nc1nc2cc3ccccc3c-2c(Nc2cccc(F)c2)[nH]1 here.
< 3.70

Supply recorded pIC50 for Nc1nc2cc3ccccc3c-2c(Nc2ccc(Cl)cc2F)[nH]1 here.
< 3.70

----------
target_entity: Bifunctional dihydrofolate reductase-thymidylate synthase (Toxoplasma gondii, UniProt Q07422)
Sequence (Q07422 whole entry): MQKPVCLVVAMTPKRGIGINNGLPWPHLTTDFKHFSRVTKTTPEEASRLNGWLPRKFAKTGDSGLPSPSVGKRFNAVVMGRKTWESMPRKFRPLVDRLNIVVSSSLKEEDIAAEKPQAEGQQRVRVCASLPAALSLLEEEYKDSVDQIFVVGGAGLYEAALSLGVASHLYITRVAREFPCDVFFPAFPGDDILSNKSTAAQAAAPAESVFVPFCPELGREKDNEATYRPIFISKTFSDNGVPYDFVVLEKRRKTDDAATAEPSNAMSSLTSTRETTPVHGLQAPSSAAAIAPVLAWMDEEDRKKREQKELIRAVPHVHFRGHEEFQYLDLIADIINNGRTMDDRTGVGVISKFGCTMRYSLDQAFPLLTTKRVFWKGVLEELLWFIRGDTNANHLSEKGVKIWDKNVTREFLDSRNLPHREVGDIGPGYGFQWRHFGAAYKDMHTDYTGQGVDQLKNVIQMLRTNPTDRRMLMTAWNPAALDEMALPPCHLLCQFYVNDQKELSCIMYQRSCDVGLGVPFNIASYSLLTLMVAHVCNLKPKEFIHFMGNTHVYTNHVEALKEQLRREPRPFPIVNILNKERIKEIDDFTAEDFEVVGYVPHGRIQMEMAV
test_protocol: Inhibition of Toxoplasma gondii thymidylate synthase
pIC50: −log10 of the molar value.
quantity: pIC50

Supply recorded pIC50 for Nc1nc2cc3ccccc3c-2c(Nc2ccc(Cl)cc2)[nH]1 here.
< 4.85

Supply recorded pIC50 for Nc1nc2cc3ccccc3c-2c(Nc2ccc(F)c(Cl)c2)[nH]1 here.
< 4.89

Supply recorded pIC50 for CC(C)c1ccc(Nc2[nH]c(N)nc3cc4ccccc4c2-3)cc1 here.
< 4.85

Supply recorded pIC50 for Nc1nc2cc3ccccc3c-2c(Nc2ccc(Cl)cc2F)[nH]1 here.
< 4.89

----------
target_entity: Thymidylate synthase (Homo sapiens, UniProt P04818)
Sequence (P04818 whole entry): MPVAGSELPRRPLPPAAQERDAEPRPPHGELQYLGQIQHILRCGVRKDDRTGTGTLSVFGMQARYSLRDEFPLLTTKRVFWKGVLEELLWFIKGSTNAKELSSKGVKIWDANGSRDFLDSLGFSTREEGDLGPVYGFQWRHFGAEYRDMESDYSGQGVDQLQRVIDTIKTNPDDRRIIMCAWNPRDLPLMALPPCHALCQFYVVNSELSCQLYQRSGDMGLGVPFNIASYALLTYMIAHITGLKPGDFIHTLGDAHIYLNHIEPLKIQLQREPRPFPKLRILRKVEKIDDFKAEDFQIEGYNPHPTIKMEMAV
quantity: IC50

Supply recorded IC50 for Nc1nc2cc3ccccc3c-2c(Nc2ccc(Cl)cc2)[nH]1 here.
> 14 µM

Supply recorded IC50 for CC(C)c1ccc(Nc2[nH]c(N)nc3cc4ccccc4c2-3)cc1 here.
> 14 µM

Supply recorded IC50 for Nc1nc2cc3ccccc3c-2c(Nc2ccc(Cl)cc2F)[nH]1 here.
> 13 µM

Ref: BindingDB's records for doi:10.1016/j.bmc.2012.05.068
